Answer each item with its documented growth.
tested on: HL-60(TB) leukemia; test: NCI-60 one-dose screen, 48 h (100 = growth as untreated, 0 = no growth, -100 = all killed); details: 10 µM unless noted
Compounds without any hit were thinned out: in the full panel of roughly 83,000, 20% have a hit.
Answers are plain numbers, in %.

{"Molecule": "CN1[C@@H](CC(=O)c2ccccc2)CCC[C@H]1CC(=O)c1ccccc1", "System Name": "HL-60(TB) leukemia", "Readout Name": "growth", "Uom": "%", "Result": 116}
{"Molecule": "COc1ccc(N)cc1OC", "System Name": "HL-60(TB) leukemia", "Readout Name": "growth", "Uom": "%", "Result": 114}
{"Molecule": "CC[C@H](C)[C@H](NC(=O)CN(C)C)C(=O)N(C)[C@H](C[C@@H](OC(C)=O)c1nc(C(=O)NC23CC(C(=O)OC)(C2)C3)cs1)C(C)C", "System Name": "HL-60(TB) leukemia", "Readout Name": "growth", "Uom": "%", "Result": -18.9}
{"Molecule": "O=C1C=C(N2CC2)c2ccccc2C1=O", "System Name": "HL-60(TB) leukemia", "Readout Name": "growth", "Uom": "%", "Result": 8.35}
{"Molecule": "CC1OC(=O)C(C(C)C)NC(=O)C(C(C)C)OC(=O)C(C(C)C)NC(=O)C(C)OC(=O)C(C(C)C)NC(=O)C(C(C)C)OC(=O)C(C(C)C)NC(=O)C(C)OC(=O)C(C(C)C)NC(=O)C(C(C)C)OC(=O)C(C(C)C)NC1=O (centres undefined)", "System Name": "HL-60(TB) leukemia", "Readout Name": "growth", "Uom": "%", "Result": -44.6}
{"Molecule": "O=[N+]([O-])c1ccc(P(=O)(O)O)cc1", "System Name": "HL-60(TB) leukemia", "Readout Name": "growth", "Uom": "%", "Result": 105}

Batch: growth for all items listed.
1. N#CC(C#N)=C(C#N)C#N
2. Cc1cc[c-]cc1.Fc1c[c-]c(-c2ccccn2)c(F)c1.N#CCC[PH+](CCC#N)c1ccccc1.[Pt+2]
3. C[C@]12CCc3sc(Nc4ccc(F)cc4)nc3C1=CC[C@@H]1[C@@H]2CC[C@]2(C)C(=O)CC[C@@H]12

1: 107; 2: 2.54; 3: 49.8
